Experiment: Pharmacokinetic experiment, single intragastric administration, plasma by HPLC-UV
Type: in vivo, SD rats
Conditions: SD (Sprague-Dawley), rat, plasma, po, plasma, Group B (CUR 200 mg kg^−1 and PIP 150 mg kg^−1 oral), 40 min; read-out: Mean concentrations ±sd, PIP
MEASURED PARAMETER: concentration at 40 min (ng/mL)
Output spec: scalar in ng/mL, unitless text.

Req: # return recorded concentration at 40 min for input O=C(/C=C/C=C/c1ccc2c(c1)OCO2)N1CCCCC1 [PIP, Piperine, reference compound]
Resp: 2100

###

Experiment: Pharmacokinetic experiment, single intragastric administration, plasma by HPLC-UV
Type: in vivo, SD rats
Conditions: SD (Sprague-Dawley), rat, plasma, po, 200 mg/kg, Group B: CUR 200 mg kg^−1 and PIP 150 mg kg^−1 oral; read-out: AUC(0-tn) of DHC (converted)
MEASURED PARAMETER: AUC (ng·h/mL)
Value expressed in ng·h/mL; do not type the unit.

Req: Provide AUC value for the following molecule: COc1cc(/C=C/C(=O)CC(=O)CCc2ccc(O)c(OC)c2)ccc1O [DHC, Dihydrocurcumin]
Resp: 7060
